- System: KM-20L2
- protocol description: NCI tumour cell line growth inhibition, 48 h
Calls of active or inactive are those of the source. No stated cut-off is given here; in the data, active = GI50 up to about 1.1 µM and inactive = higher.
Provide the recorded GI50 for the entries that follow.

Some solved cases for reference:
molecule="CC(=O)OCC1OC(n2c(=O)n(-c3ccccc3)c(=O)c3ccccc32)C(OC(C)=O)C(OC(C)=O)C1OC(C)=O (stereo not drawn)" readout_label=GI50 test_result="> 100 µM (inactive)"
molecule=Cc1cc(NS(=O)(=O)c2ccc(Nc3c4ccccc4nc4c(C(=O)NCCN(C)C)ccc(Cl)c34)cc2)no1 readout_label=GI50 test_result="11 µM (inactive)"
molecule="O=C(O)C1CC2C=CCC(C2)C1 (stereo not drawn)" readout_label=GI50 test_result="> 100 µM (inactive)"

Respectfully, I request GI50 for each entry included below.
1. O=C1CCSC2=C1SCc1sccc12
2. CC(=O)Nc1ccc(/C=C2\N=C(c3ccccc3)OC2=O)cc1
3. O=C(c1ccco1)N(C(=S)N1CCN(c2ccccn2)CC1)C1CCCCC1
4. COc1ccc(C2=C(Cl)c3cc(OC)c(OC)cc3C2Cl)cc1OC (stereo not drawn)
5. NC1=NN(c2ccccc2)C(=O)C1C(=O)C(=O)Nc1cccc(C(F)(F)F)c1 (stereo not drawn)

> 100 µM (inactive)
> 100 µM (inactive)
> 100 µM (inactive)
15.6 µM (inactive)
> 100 µM (inactive)
